- system under test: hNPY2R (Homo sapiens)
- Construct: expressed in transfected cells; host or cells: HEK-293 cells carrying a CRE-luciferase reporter gene
- Sequence (P49146 1-381): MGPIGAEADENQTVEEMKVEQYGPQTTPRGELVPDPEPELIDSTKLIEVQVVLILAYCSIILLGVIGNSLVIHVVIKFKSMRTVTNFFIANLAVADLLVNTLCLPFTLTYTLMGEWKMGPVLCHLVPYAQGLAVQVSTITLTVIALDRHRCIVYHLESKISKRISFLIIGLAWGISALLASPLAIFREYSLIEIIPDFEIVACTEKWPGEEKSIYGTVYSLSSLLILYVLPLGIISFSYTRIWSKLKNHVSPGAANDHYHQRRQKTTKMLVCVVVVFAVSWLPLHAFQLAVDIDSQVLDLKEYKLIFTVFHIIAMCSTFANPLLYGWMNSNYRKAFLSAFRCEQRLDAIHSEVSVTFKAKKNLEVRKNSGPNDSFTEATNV
- method summary: hNPY2R CreLuc reporter gene assay in 0.5% and 100% plasma
- Assay type: cell-based
- applied conditions: CreLuc reporter gene assay, 0.5% human plasma; read-out: hNPY2R 0.5% hP
- Method: Example 1: hGLPR/hGIPR/hNPY2R CreLuc Assay in 0.5% and 100% Plasma CHO and HEK-293 recombinant cell lines express a luciferase reporter gene under control of the cAMP responsive element (CRE). […] Following incubation, assay plates are equilibrated to room temperature, followed by addition of 25 μl of Bright-GIo™ Luciferase reagent, incubation at room temperature for 10 minutes and analysis of luminescence (Envision Reader). […]
Starred links: 1 amine or outer side, 2 acyl side, 3 side chain; linkers in the order of their positions; H or OH if unused. Non-standard residues stand in square brackets, D forms with d. Groups on a side chain read outwards from the residue. No end group written: not given here. *: point of attachment. C20 diacid = O=C(O)CCCCCCCCCCCCCCCCCCC(=O)*; C18 diacid = O=C(O)CCCCCCCCCCCCCCCCC(=O)*; γGlu = O=C(O)[C@H](CCC(=O)[*:2])N[*:1]; εLys = N[C@@H](CCCCN[*:1])C(=O)[*:2]; AEEA = NCCOCCOCC(=O)O; Aib = CC(C)(N)C(=O)O
observation type: EC50 (nM)
Please give a number only; it is taken to be in nM.

H-Y[Aib]EGTFTSDYSI[Aib]LEKAAQ[Aib]AFVEWLIK([εLys-γGlu-γGlu-γGlu-γGlu-γGlu-γGlu-C20 diacid])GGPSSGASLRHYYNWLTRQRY-NH2 [Compound 136]    15.1
Y[Aib]EGTFTSDYSI[Aib]LEKQAQ[Aib]AFVQWLIK([AEEA-AEEA-γGlu-γGlu-γGlu-γGlu-C20 diacid])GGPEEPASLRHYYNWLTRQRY-NH2 [Compound 77]    13.7
H-Y[Aib]EGTFTSDYSI[Aib]LEGQAQ[Aib]AFVEWLIK([εLys-γGlu-γGlu-γGlu-γGlu-γGlu-γGlu-C20 diacid])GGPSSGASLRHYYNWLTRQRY-NH2 [Compound 99]    16.8
H-Y[Aib]EGTFTSDYSI[Aib]LEKQAQ[Aib]AFVQWLIK([εLys-γGlu-γGlu-γGlu-γGlu-γGlu-γGlu-C18 diacid])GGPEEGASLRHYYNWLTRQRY-NH2 [Compound 149]    18.6

Continue with the next substance.
Ask: Value lookup for EC50; key = Y[Aib]EGTFTSDYSI[Aib]LEKQAQ[Aib]AFVEWLIK([εLys-γGlu-γGlu-γGlu-γGlu-γGlu-C20 diacid])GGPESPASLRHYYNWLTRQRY-NH2 [Compound 70]
Result: 16.2
